Where do the numbers come from? From patent US8039635B2.

# ASSAY_COMMENT: Pharmacokinetic evaluation (bioavailability) in SD rats
# Assay type: in vivo
# EXPERIMENTAL_CONTEXT: SD rats, 50 mg/kg
READOUT_LABEL: AUC (area under the blood concentration-time curve)

{"columns": ["COMPOUND", "EXPERIMENTAL_RESULT"],
 "data": [
  ["CS(=O)(=O)O.CS(=O)(=O)O.Cc1nc(-c2ccc(OCCCCCOc3ccc(C(=N)NO)cc3)cc2)c(C(C)C)s1 [2 Methansulfonic acid salt]", "8970 ng·h/mL"]
]}
